The values you see were collected from patent US9920032B2.

As a worked illustration, we turn to IC50 data collected for Pim-2 (Homo sapiens (Human)).

{"test-smiles": "C[C@@H]1C[C@H](N)C[C@H](c2ccncc2NC(=O)c2ccc(F)c3cc(NCC(F)F)cnc23)C1", "tgt": "Pim-2 (Homo sapiens (Human))", "IC50": "≤ 100 nM"}
{"test-smiles": "C[C@@H]1C[C@H](N)C[C@H](c2ccncc2NC(=O)c2ccc(F)c3cc(C4CCOCC4)cnc23)C1", "tgt": "Pim-2 (Homo sapiens (Human))", "IC50": "100 to 1000 nM"}
{"test-smiles": "C[C@@H]1C[C@H](N)C[C@H](c2ccncc2NC(=O)c2ccc(F)c3cc(N[C@@H](C)C4CC4)cnc23)C1", "tgt": "Pim-2 (Homo sapiens (Human))", "IC50": "1000 to 10000 nM"}
{"test-smiles": "C[C@@H]1C[C@H](N)C[C@H](c2ccncc2NC(=O)c2ccc(F)c3cc(N(C)c4ccc5nccn5c4)cnc23)C1", "tgt": "Pim-2 (Homo sapiens (Human))", "IC50": "100 to 1000 nM"}
{"test-smiles": "COCCN1CCN(c2cnc3c(C(=O)Nc4cnccc4[C@@H]4C[C@H](C)C[C@H](N)C4)ccc(F)c3c2)CC1=O", "tgt": "Pim-2 (Homo sapiens (Human))", "IC50": "100 to 1000 nM"}
{"test-smiles": "COC(=O)N1CCCN(c2cnc3c(C(=O)Nc4cnccc4[C@@H]4C[C@H](C)C[C@H](N)C4)ccc(F)c3c2)CC1", "tgt": "Pim-2 (Homo sapiens (Human))", "IC50": "≤ 100 nM"}
{"test-smiles": "C[C@@H]1C[C@H](N)C[C@H](c2ccncc2NC(=O)c2ccc(F)c3cc(-c4cc(F)cc5cccnc45)cnc23)C1", "tgt": "Pim-2 (Homo sapiens (Human))", "IC50": "1000 to 10000 nM"}

* * *

Recorded pIC50, one value per entry.
molecular target: Pim-2 (Homo sapiens (Human)); assay: Pim-2 kinase assay; type: biochemical; conditions: 1 mM ATP; read-out: PIM2 IC50
Sequence (Q9P1W9 whole entry): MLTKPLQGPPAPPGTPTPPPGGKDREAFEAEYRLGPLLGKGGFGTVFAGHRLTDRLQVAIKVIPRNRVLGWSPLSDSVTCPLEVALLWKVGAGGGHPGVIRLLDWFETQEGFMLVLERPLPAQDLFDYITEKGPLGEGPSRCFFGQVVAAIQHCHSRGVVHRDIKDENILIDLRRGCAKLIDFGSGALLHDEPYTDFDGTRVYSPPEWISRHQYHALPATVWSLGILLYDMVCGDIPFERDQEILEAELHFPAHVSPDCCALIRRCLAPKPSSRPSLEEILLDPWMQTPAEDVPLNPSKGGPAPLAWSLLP
pIC50: −log10 of the molar value.

{"test-smiles": "C[C@@H]1C[C@H](N)C[C@H](c2ccncc2NC(=O)c2ccc(F)c3cc(N4CCCN(C)S4(=O)=O)cnc23)C1", "pIC50": "≥ 7.00"}
{"test-smiles": "C[C@@H]1C[C@H](N)C[C@H](c2ccncc2NC(=O)c2ccc(F)c3cc(N4CC(F)C4)cnc23)C1", "pIC50": "6.00 to 7.00"}
{"test-smiles": "C[C@@H]1C[C@H](N)C[C@H](c2ccncc2NC(=O)c2ccc(F)c3cc(N4CC[C@H]4CO)cnc23)C1", "pIC50": "≥ 7.00"}
{"test-smiles": "C[C@@H]1C[C@H](N)C[C@H](c2ccncc2NC(=O)c2ccc(F)c3cc(N(C)[C@@H]4CCOC4)cnc23)C1", "pIC50": "6.00 to 7.00"}
{"test-smiles": "COCCN(C)c1cnc2c(C(=O)Nc3cnccc3[C@@H]3C[C@H](C)C[C@H](N)C3)ccc(F)c2c1", "pIC50": "6.00 to 7.00"}
{"test-smiles": "C[C@@H]1C[C@H](N)C[C@H](c2ccncc2NC(=O)c2ccc(F)c3cc(N4C5CCC4CC5)cnc23)C1", "pIC50": "≥ 7.00"}
{"test-smiles": "C[C@@H]1C[C@H](N)C[C@H](c2ccncc2NC(=O)c2ccc(F)c3cc(N4CC[C@@H]4C)cnc23)C1", "pIC50": "≥ 7.00"}
